These data points were gathered from ChEMBL document CHEMBL1857833.

Provide the recorded % inhibition for the entries that follow.
System: Trypanosoma brucei
Experimental details: DNDI: Inhibition of Human African Trypanosomiasis, SBRI 427, in vitro at 2 ug.mL-1
Type: functional
About 390 (8.9%) of roughly 4,400 compounds showed an effect of 50% or more. Shown is part of a subset that was picked to be rich in strong results.
One number for each entry, in %.

Consider the reported % inhibition for these compounds:
{"Compound": "CN1CCCC1CCNCc1coc(-c2ccccc2Br)n1 (stereo not given)", "Obs value": 57}
{"Compound": "O/N=C(\\NCc1cccs1)c1cccnc1Oc1c(F)cccc1F", "Obs value": 73}
{"Compound": "CN1CCCC1CCNCc1coc(-c2cccs2)n1 (stereo not given)", "Obs value": -4}
{"Compound": "CSc1ccc(Oc2nc(C)ccc2/C(=N/O)NC2CCC2)cc1", "Obs value": 3}
{"Compound": "Cc1ccc(Oc2nc(C)ccc2/C(=N/O)NC2CCCCC2)c(C)c1", "Obs value": 100}
{"Compound": "O/N=C(\\NCC1CCCCC1)c1cccnc1Oc1c(F)cccc1F", "Obs value": 99}
{"Compound": "O/N=C(\\NCC1CCCO1)c1cccnc1Oc1c(F)c(F)cc(F)c1F (stereo not given)", "Obs value": 1}
{"Compound": "O/N=C(\\NCc1c(F)cccc1F)c1cccnc1Oc1ccccc1", "Obs value": 98}
{"Compound": "CC1CC(N/C(=N\\O)c2cccnc2OCC(C)(C)C)CC(C)(C)C1 (stereo not given)", "Obs value": 44}
{"Compound": "CCCCN(C)Cc1coc(-c2ccc(OC)cc2)n1", "Obs value": 9}

Please give % inhibition, item by item, for the list that follows.
1. CC1CC(N/C(=N\O)c2cccnc2Oc2c(F)cccc2F)CC(C)(C)C1 (stereo not given)
2. Cc1ccc(Oc2nc(C)ccc2/C(=N/O)NCC2CCCCC2)c(C)c1
3. Cc1ccc(Oc2ncccc2/C(=N/O)NCc2ccccc2)cc1
4. COc1ccc(-c2nc(CN3CCN(c4cccc(C(F)(F)F)c4)CC3)co2)cc1
5. C=CCc1ccc(Oc2nc(C)ccc2/C(=N/O)NCC2CC2)c(OC)c1

Key:
98
62
12
-13
44

Could you tell me % inhibition for each of these compounds? They are listed below.
1. CC1CCC(N/C(=N\O)c2cccnc2Oc2ccc(-n3cncn3)cc2)CC1 (stereo not given)
2. COCCN(/C(=N\O)c1ccc(C)nc1Oc1cccc(C)c1)C(C)C
3. Cc1ccc(N2CCN(Cc3coc(-c4ccccc4F)n3)CC2)c(C)c1
4. Cc1ccc(Oc2nc(C)ccc2/C(=N/O)NC2CCCC2)c(C)c1
5. CCN(Cc1coc(-c2cccc(OC)c2)n1)c1cccc(C)c1

Key:
98
23
-17
25
-18

---

Test system: Trypanosoma brucei
Experimental details: DNDI: Inhibition of Human African Trypanosomiasis, SBRI 427, in vitro at 2 ug.mL-1
Assay type: functional
Screen size: about 4,400 compounds; about 390 (8.9%) showed an effect of 50% or more. The entries come from a sample that favours strong results as a whole.
Readout type: % inhibition (%)
Give bare numbers, in %.

{"Compound": "Cc1ccc(-c2nc(CNc3ccccc3C)co2)cc1", "System tested": "Trypanosoma brucei", "Value unit": "%", "Obs value": -4}

Hi team, please reply with % inhibition for each item in this list.
1. CSc1ccc(Oc2cc(/C(=N/O)NCC3CCCO3)ccn2)cc1 (stereo not given)
2. COc1ccc(-c2nc(CNCc3cccc(C(F)(F)F)c3)co2)cc1
3. Cc1ccc(/C(=N/O)N2CCC(N(C)C)C2)c(Oc2cccc(F)c2)n1 (stereo not given)
4. COc1cc(-c2nc(Cn3cnc(C)c3)co2)cc(OC)c1OC
5. CCOc1cccc(-c2nc(Cn3cnc(-c4ccccc4)c3)co2)c1

Key:
[6, -13, 6, -15, 11]

Please state % inhibition for every compound in the list that follows.
1. O/N=C(\NC1CCC1)c1cccnc1Oc1ccc2c(c1)CCCC2
2. O/N=C(/c1cccnc1Oc1ccc2ccccc2c1)N1CCC2CCCCC2C1 (stereo not given)
3. CCOc1ccccc1-c1nc(CNCc2ccc(C)o2)co1

Key:
1. 100
2. 100
3. 18

Exercise: Please look at this compound and report its % inhibition: O/N=C(\NC1CCc2ccccc21)c1ccc(Oc2ccc(-n3ccnc3)cc2)nc1 (stereo not given)
Key: -1

---

Tested on: Trypanosoma brucei
Experimental details: DNDI: Inhibition of Human African Trypanosomiasis, SBRI 427, in vitro at 2 ug.mL-1
Type: functional
Among all 4,400 compounds or so, about 390 (8.9%) showed an effect of 50% or more. This is one part of a sample in which strong results are shown more often than they occur.
Kindly supply the reported % inhibition values for the records listed here.
Answers are plain numbers, in %.

State recorded % inhibition for all listed compounds.
1. CCCc1nccn1Cc1coc(-c2ccc(Cl)cc2Cl)n1
2. CCCN(CCC)Cc1coc(-c2ccccc2Cl)n1
3. Cc1ccc(CN/C(=N\O)c2cccnc2Oc2c(F)cccc2F)o1
4. Fc1cccc(-c2nc(CNCc3cccc4ccccc34)co2)c1
5. CSc1ccc(Oc2nc(C)ccc2/C(=N/O)NCc2ccco2)cc1
6. CC(C)(C)COc1ncccc1/C(=N/O)n1ccnc1

Key:
1. 50
2. 16
3. 0
4. 17
5. -3
6. 30

For each listed entry, give its % inhibition.
1. O/N=C(\NCc1ccccn1)c1cccnc1Oc1ccc(F)cc1Cl
2. Clc1ccc(-c2nc(CNCCCN3CCCC3)co2)c(Cl)c1

Key:
1. 20
2. 98

---

Tested on: Trypanosoma brucei
Experimental details: DNDI: Inhibition of Human African Trypanosomiasis, SBRI 427, in vitro at 2 ug.mL-1
Assay type: functional
Out of some 4,400 compounds screened, about 390 (8.9%) showed an effect of 50% or more. This excerpt belongs to a sample that is enriched for strong results.
Readout type: % inhibition (%)
Answers are plain numbers, in %.

Need % inhibition for each of these molecules.
1. FC(F)(F)c1ccc(-c2nc(Cn3ccnc3)co2)cc1
2. COc1cc(C)ccc1Oc1nc(C)ccc1/C(=N/O)Nc1ccc(C(C)C)cc1
3. CC(C)Oc1ccccc1Oc1ncccc1/C(=N/O)NCC1CCCO1 (stereo not given)

Key:
[-3, 8, -11]

Would you be so kind as to report % inhibition for each listed record?
1. Cc1cccc(Oc2nc(C)ccc2/C(=N/O)N2Cc3ccccc3C2)c1
2. COc1cccc(N2CCN(Cc3coc(-c4ccc(F)cc4)n3)CC2)c1
3. c1ccc(N2CCN(Cc3coc(-c4ccco4)n3)CC2)nc1
4. Cc1ccc(-c2nc(CNc3cc(C)nn3-c3ccccc3)co2)cc1
5. CCOC(=O)C1CCCCN1Cc1coc(-c2cccc(OCC)c2)n1 (stereo not given)

Key:
1: 3; 2: -1; 3: 4; 4: 10; 5: 2

List reported % inhibition for each of these molecules:
1. C=CCN(C)Cc1coc(-c2ccc(OC)cc2)n1
2. Cc1ccc(/C(=N/O)N2CC=CC2)c(OCc2cccc(F)c2)n1

Key:
[18, -19]

---

Test system: Trypanosoma brucei
Experimental details: DNDI: Inhibition of Human African Trypanosomiasis, SBRI 427, in vitro at 2 ug.mL-1
Type: functional
The campaign covered roughly 4,400 compounds. About 390 (8.9%) showed an effect of 50% or more. The full list was thinned out, with strong results kept by preference.
Readout type: % inhibition (%)
Answers are plain numbers, in %.

{"Molecule": "Cc1cc(Oc2ccc(/C(=N/O)NCc3cc(F)ccc3F)cn2)cc(C(C)C)c1", "% inhibition, %": -14}

Working through the 7 molecules below one at a time, give % inhibition for each.
1. Cc1ccc(Oc2ncccc2/C(=N/O)NCC(C)C)c2c1CCC2
2. CCOc1ccccc1CN/C(=N\O)c1cccnc1OCc1cccc(F)c1
3. CC(NCc1coc(-c2ccc(C(F)(F)F)cc2)n1)c1ccccc1 (configuration not stated)
4. Cc1cc(Oc2ccc(/C(=N/O)N3CCN(c4ccc(F)cc4)CC3)cn2)cc(C(C)C)c1
5. O/N=C(/c1ccnc(Oc2ccc(F)c(Cl)c2)c1)N1CCSC1
6. Cc1cccc(Oc2ccc(/C(=N/O)N(C)C3CCCCC3)cn2)c1
7. COCCN(Cc1coc(-c2cccc3ccccc23)n1)C(C)C

Key:
1: 100; 2: 72; 3: 2; 4: 3; 5: -2; 6: 4; 7: 6

Working through the 3 molecules below one at a time, give % inhibition for each.
1. CC(C)N/C(=N\O)c1cccnc1Oc1ccccc1OCc1ccccc1
2. O/N=C(\Nc1ccccc1)c1cccnc1OCc1ccccc1
3. C/C(=C\C#N)N/C(=N\O)c1ccnc(Oc2cc(C)ccc2C(C)C)c1

Key:
[-14, 77, 21]

Lab note: each molecule below needs its % inhibition filled in.
1. O/N=C(\NCC1CC1)c1cccnc1OCc1ccccc1
2. Cc1ccc(/C(=N/O)N2CCCCC2)c(Oc2cccc(F)c2)n1

Key:
1. 99
2. 16

Go through the items and report each one's % inhibition.
1. COC(=O)C1CCN(/C(=N\O)c2cccnc2OCc2ccccc2)CC1
2. COC[C@H]1CCCN1Cc1coc(-c2cccc(F)c2)n1
3. CCc1ccc(Oc2ncccc2/C(=N/O)N2CC(C)CC(C)C2)cc1 (configuration not stated)
4. Clc1ccccc1-c1nc(CN2CC=CCC2)co1
5. N#CCCN(Cc1coc(-c2ccc(Cl)cc2Cl)n1)CC1CCCO1 (configuration not stated)

Key:
[61, 0, 15, 14, 9]

Batch lookup, % inhibition per entry.
1. CCOc1ccccc1-c1nc(CN(CCC#N)C2CCCCC2)co1
2. O/N=C(\NC1CCC1)c1cccnc1Oc1ccccc1OCc1ccccc1

Key:
1: -4; 2: 97

I need % inhibition for every entry listed below, if you could help.
1. CCN(/C(=N\O)c1ccc(C)nc1Oc1cccc(C(C)C)c1)C(C)C
2. CC(C)CN/C(=N\O)c1cccnc1Oc1ccccc1
3. CC(C)COc1ncccc1/C(=N/O)Nc1ccccc1
4. CCOc1ccc(-c2nc(CNc3ccnn3CC)co2)cc1
5. CSc1ccc(Oc2cc(/C(=N/O)NCc3c(F)cccc3F)ccn2)cc1
6. c1ccc(-c2nc(CN3CCC4CCCCC4C3)co2)cc1 (configuration not stated)

Key:
1. -4
2. 17
3. 5
4. -10
5. 19
6. 37

Exercise: Output % inhibition of Cc1cc(C)cc(Oc2ccc(/C(=N/O)NCC3CC3)cn2)c1
Key: 99
